# procedure.summary: in vitro
# condition.info: not told
# Description: Effective permeability of the compound in PBS/ethanol buffer
test.readout: Papp (×10⁻⁶ cm/s)
Number only, in ×10⁻⁶ cm/s; omit the unit.

compound	unit.abbrev	Papp
CC1COc2c(N3CCN(C)CC3)c(F)cc3c2N1CC(C(=O)O)C3=O (configuration not stated)	×10⁻⁶ cm/s	0.8

Proceed to the following item.
# get_value(readout='Papp', item= COc1ccc(CCN2CCC(Nc3nc4ccccc4n3Cc3ccc(F)cc3)CC2)cc1 )
11

====

Entries and their Papp at 12 h values follow.
# procedure.summary: in vitro
# condition.info: PAMPA
# Description: Effective permeability of the compound in PBS/ethanol buffer after 12 hrs by PAMPA
Number only, in ×10⁻⁶ cm/s; omit the unit.

# get_value(readout='Papp at 12 h', item= Nc1c2c(nc3cccc(N4CCN(CCCCc5c[nH]c6ccc(Cl)cc56)CC4)c13)CCCC2 )
2.74

# get_value(readout='Papp at 12 h', item= N#Cc1ccc2[nH]cc(CCCCN3CCN(c4ccc5nc6c(c(N)c5c4)CCCC6)CC3)c2c1 )
3.55

# get_value(readout='Papp at 12 h', item= N#Cc1ccc2[nH]cc(CCN3CCN(c4cccc5nc6c(c(N)c45)CCCC6)CC3)c2c1 )
4.48

# get_value(readout='Papp at 12 h', item= Nc1c2c(nc3cccc(N4CCN(CCCCc5c[nH]c6ccc(F)cc56)CC4)c13)CCCC2 )
3.76

# get_value(readout='Papp at 12 h', item= CC1COc2c(N3CCN(C)CC3)c(F)cc3c2N1CC(C(=O)O)C3=O (stereo not given) )
0.4

# credit: ChEMBL document CHEMBL4118156
